Reported Metric: Ki (nM)
Form entry: value (nM) — number only.

Lab note: need Ki for CC(C)N(C)C1CC(c2ccc(Cl)c(Cl)c2)c2ccccc21 (stereo not shown) on human dopamine transporter (Homo sapiens, UniProt Q01959), anyone have it?
220

Lab note: need Ki for CCCNC1CC(c2ccc(Cl)c(Cl)c2)c2ccccc21 (stereo not shown) on human dopamine transporter (Homo sapiens, UniProt Q01959), anyone have it?
32

Lab note: need Ki for CN(C)C1CC(c2ccc(Cl)c(Cl)c2)c2ccccc21 (stereo not shown) on human dopamine transporter (Homo sapiens, UniProt Q01959), anyone have it?
29

Lab note: need Ki for CCCN(C)C1CC(c2ccc(Cl)c(Cl)c2)c2ccccc21 (stereo not shown) on human dopamine transporter (Homo sapiens, UniProt Q01959), anyone have it?
180

====

Please provide measured pKi for the entries that follow.
Scale note: pKi = -log10(concentration in M).

Lab note: need pKi for CN(C)C1CC(c2ccc(Cl)c(Cl)c2)c2ccccc21 (stereo not shown) on human serotonin transporter (Homo sapiens), anyone have it?
8.51

Lab note: need pKi for CCNC1CC(c2ccc(Cl)c(Cl)c2)c2ccccc21 (stereo not shown) on human serotonin transporter (Homo sapiens), anyone have it?
8.70

Lab note: need pKi for CCCN(C)C1CC(c2ccc(Cl)c(Cl)c2)c2ccccc21 (stereo not shown) on human serotonin transporter (Homo sapiens), anyone have it?
7.36

Lab note: need pKi for CCCNC1CC(c2ccc(Cl)c(Cl)c2)c2ccccc21 (stereo not shown) on human serotonin transporter (Homo sapiens), anyone have it?
7.03

====

- Experimental Target: human norepinephrine transporter (Homo sapiens)
- Construct: expressed in transfected cells; host or cells: HEK cells (HEK-hNET)
- Sequence (P23975 whole entry): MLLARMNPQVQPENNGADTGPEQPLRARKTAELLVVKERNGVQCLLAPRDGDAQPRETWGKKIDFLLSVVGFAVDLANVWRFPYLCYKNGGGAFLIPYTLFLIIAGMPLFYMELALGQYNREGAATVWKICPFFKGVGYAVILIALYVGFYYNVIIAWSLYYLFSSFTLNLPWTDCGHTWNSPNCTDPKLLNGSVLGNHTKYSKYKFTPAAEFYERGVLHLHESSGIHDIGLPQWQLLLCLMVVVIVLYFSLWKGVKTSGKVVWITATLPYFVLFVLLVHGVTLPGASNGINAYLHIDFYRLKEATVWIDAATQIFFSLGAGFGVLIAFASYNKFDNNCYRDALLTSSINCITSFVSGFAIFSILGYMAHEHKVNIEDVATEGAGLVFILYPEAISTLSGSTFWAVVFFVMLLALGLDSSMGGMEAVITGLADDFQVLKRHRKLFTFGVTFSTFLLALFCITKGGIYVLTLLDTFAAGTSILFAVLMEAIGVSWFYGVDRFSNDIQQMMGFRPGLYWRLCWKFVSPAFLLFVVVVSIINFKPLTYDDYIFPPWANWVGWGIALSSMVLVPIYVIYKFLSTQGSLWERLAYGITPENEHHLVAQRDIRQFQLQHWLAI
- Assay Remarks: cell-based
- Format: cell-based
- Experimental Context: Inhibition of NE uptake, IC50
Reported Metric: IC50 (nM)
Form entry: value (nM) — number only.

Find the recorded IC50 belonging to CN(C)C1CC(c2ccc(Cl)c(Cl)c2)c2ccccc21 (stereo not shown) [Compound 1] and report it.
72

====

- Experimental Target: human serotonin transporter (Homo sapiens, UniProt P31645)
- Construct: expressed in transfected cells; host or cells: HEK cells (HEK-hSERT)
- Sequence (P31645 whole entry): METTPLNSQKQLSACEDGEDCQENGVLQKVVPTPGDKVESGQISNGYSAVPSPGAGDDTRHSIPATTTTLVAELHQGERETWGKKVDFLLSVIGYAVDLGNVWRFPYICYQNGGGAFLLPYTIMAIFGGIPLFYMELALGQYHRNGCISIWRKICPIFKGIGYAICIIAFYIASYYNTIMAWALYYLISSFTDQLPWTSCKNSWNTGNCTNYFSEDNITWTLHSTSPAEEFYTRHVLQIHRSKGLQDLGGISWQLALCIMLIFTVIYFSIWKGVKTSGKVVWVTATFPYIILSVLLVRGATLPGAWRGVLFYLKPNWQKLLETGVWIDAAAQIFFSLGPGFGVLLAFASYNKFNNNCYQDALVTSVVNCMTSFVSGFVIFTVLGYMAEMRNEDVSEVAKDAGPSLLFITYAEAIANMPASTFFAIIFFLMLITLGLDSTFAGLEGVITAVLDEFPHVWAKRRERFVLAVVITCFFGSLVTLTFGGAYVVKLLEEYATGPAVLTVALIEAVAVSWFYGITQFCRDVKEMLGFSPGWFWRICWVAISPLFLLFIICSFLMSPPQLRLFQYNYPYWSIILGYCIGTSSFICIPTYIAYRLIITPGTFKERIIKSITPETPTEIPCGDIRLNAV
- Assay Remarks: [3H]serotonin uptake by HEK-hSERT cells
- Type: cell-based
- Experimental Context: ratio
Classification field: 1 = 5HT uptake/binding at or over 6; 0 = 5HT uptake/binding under 6.

Determine whether measured 5HT uptake/binding meets or exceeds 6 for CN(C)C1CC(c2ccc(Cl)c(Cl)c2)c2ccccc21 (stereo not drawn)
0

Determine whether measured 5HT uptake/binding meets or exceeds 6 for CCN(C)C1CC(c2ccc(Cl)c(Cl)c2)c2ccccc21 (stereo not drawn)
0

Determine whether measured 5HT uptake/binding meets or exceeds 6 for CN(Cc1ccccc1)C1CC(c2ccc(Cl)c(Cl)c2)c2ccccc21 (stereo not drawn)
1

Determine whether measured 5HT uptake/binding meets or exceeds 6 for CC(C)(C)NC1CC(c2ccc(Cl)c(Cl)c2)c2ccccc21 (stereo not drawn)
0

Determine whether measured 5HT uptake/binding meets or exceeds 6 for CCNC1CC(c2ccc(Cl)c(Cl)c2)c2ccccc21 (stereo not drawn)
1

Determine whether measured 5HT uptake/binding meets or exceeds 6 for CCCNC1CC(c2ccc(Cl)c(Cl)c2)c2ccccc21 (stereo not drawn)
0

====

- Experimental Target: human dopamine transporter (Homo sapiens)
- Sequence (Q01959 whole entry): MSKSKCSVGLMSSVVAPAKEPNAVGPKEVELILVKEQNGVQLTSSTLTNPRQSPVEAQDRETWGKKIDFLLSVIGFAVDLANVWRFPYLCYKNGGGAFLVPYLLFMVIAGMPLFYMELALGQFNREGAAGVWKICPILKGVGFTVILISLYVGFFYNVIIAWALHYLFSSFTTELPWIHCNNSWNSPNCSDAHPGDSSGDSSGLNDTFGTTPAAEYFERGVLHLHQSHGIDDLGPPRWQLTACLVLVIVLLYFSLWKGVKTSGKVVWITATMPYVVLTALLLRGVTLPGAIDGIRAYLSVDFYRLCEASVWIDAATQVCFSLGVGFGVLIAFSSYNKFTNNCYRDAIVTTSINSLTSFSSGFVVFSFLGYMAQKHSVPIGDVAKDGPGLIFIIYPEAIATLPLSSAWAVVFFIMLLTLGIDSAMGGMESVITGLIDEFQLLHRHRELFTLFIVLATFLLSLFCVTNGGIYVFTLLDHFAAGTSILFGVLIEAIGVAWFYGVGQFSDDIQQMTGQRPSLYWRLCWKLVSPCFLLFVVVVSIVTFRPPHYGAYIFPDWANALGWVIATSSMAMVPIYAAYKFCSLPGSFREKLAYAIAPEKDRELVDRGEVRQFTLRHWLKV
- Assay Remarks: [3H]dopamine uptake by C6-hDAT cells
- Experimental Context: Inhibition of DA uptake, IC50, C6-hDAT cells
pIC50: −log10 of the molar value.
Classification field: criterion met = pIC50 at or over 7; criterion not met = pIC50 under 7.

Determine whether measured pIC50 meets or exceeds 7 for CCCNC1CC(c2ccc(Cl)c(Cl)c2)c2ccccc21 (centres unmarked)
criterion met

Determine whether measured pIC50 meets or exceeds 7 for CN(C1CC(c2ccc(Cl)c(Cl)c2)c2ccccc21)C(C)(C)C (centres unmarked)
criterion not met

Determine whether measured pIC50 meets or exceeds 7 for CC(C)(C)NC1CC(c2ccc(Cl)c(Cl)c2)c2ccccc21 (centres unmarked)
criterion not met

Determine whether measured pIC50 meets or exceeds 7 for CN(C)C1CC(c2ccc(Cl)c(Cl)c2)c2ccccc21 (centres unmarked)
criterion not met

Determine whether measured pIC50 meets or exceeds 7 for CN(Cc1ccccc1)C1CC(c2ccc(Cl)c(Cl)c2)c2ccccc21 (centres unmarked)
criterion not met

Determine whether measured pIC50 meets or exceeds 7 for CC(C)N(C)C1CC(c2ccc(Cl)c(Cl)c2)c2ccccc21 (centres unmarked)
criterion met

Determine whether measured pIC50 meets or exceeds 7 for CCN(C)C1CC(c2ccc(Cl)c(Cl)c2)c2ccccc21 (centres unmarked)
criterion not met

These entries and their values trace back to patent US5821386A.
